# test-protocol: yeast display, Sf9 membrane polyspecificity reagent, FACS + sequencing; frameworks hold sequencing errors
experimental-endpoint: polyreactivity (PSR sort gate)

>>> observed_result("QVQLQESGGGLVQAGGSLCLSCAASGTIFFDGDMGWYRQAPGKEREFVAAINPGGSAYYADSVKGRLPLAAITHTVYLQMNSLKPEDTAVYYCAAKLFDVYGYYYWGQGTHVTVSS")
"low polyreactivity"
>>> observed_result("QVQLVESGGGLVQAGGRLRLSCAASGSIFYYNVMGWYRQAHGKQRELVAAITWSGGTTYYADSVKGRFTISRDNAKNTVYLQMNSLKPEDTAVYYCIAASPYSWGYRRGYLGQGTQVTVSS")
"high polyreactivity"
>>> observed_result("QVQHVESGGGLVQAGGSLRLSIAASVFTFKGNAMGWYRQGPGKEMELVSTITQSGGSTYYADSVKGRFTISRDNAKNTVYLQMNSLKPEDTAVYFCNADPITLYYYSWYNYWGQGTQVTVSS")
"low polyreactivity"
>>> observed_result("QVQLVESGGGLFQAGGSLRLSCAASGRIFGGYAMGWYRQAPGTERELVAAIDWDGGSTYYADSVKGRFTISRDNEKNTVYLQMNSLKPEDTAVYYSNAVKWTWWSSSGDYDYWGQGTQVTVSS")
"high polyreactivity"

Request: Quick one: polyreactivity (PSR sort gate) for QVQLVESGGGLVQAGGSLRLSCAASGSTFPINAMGWYRQAPGKERELVACISSGGSTDYADSVKGRFTISRVNAKNTVYLQMNSLKAEHTAVYYWAAVRGPSLVTKYPHDYWGQGTQVTVSS ?
Response: low polyreactivity

----------
# test-protocol: yeast display, Sf9 membrane polyspecificity reagent, FACS + sequencing; frameworks hold sequencing errors
experimental-endpoint: polyreactivity (PSR sort gate)

>>> observed_result("QVQLVESGGGLVQAGGSLRLSCAASGSIFAHYTMGWYRQAPGKERELVAVISRSGARTYYADSVKGRFTISRDNAKNTVYLQMNSLKPEDTAVYYCAATWGSVQKGTYYYWGQGTQVTVSS")
"low polyreactivity"
>>> observed_result("QVQLVESGGRLVQAGGILRLSCAASGRIFSANAMGWYRQAPGKERELVAAITSSGGSTYYADSVKGRFTISRDNAKNTVYLQMNSLKPEDTAVYYCAAESAAYGGGTSDAGYESDYLGQGTQVTVSS")
"low polyreactivity"
>>> observed_result("QVQLVESGGGLVQAGGSLRLSCAASGSIFAYYSMGWYIQAPGKERELVAAISWSGGSTYYADSVKGRFTISRDNAKNTVYLQMNSLKPEDTAVYYCNVARSYSKMYWGQGTQVTVSS")
"high polyreactivity"
>>> observed_result("QVQLVETGGGLVQAGGSLGLSCAASGRTFGVNAMGWYRQAPGKERELVAAITRGGNTYYADSVKGRFTISRDNAKNTVYLQMNSLKPEDTAVYYCAATGWLRIDRPYTYTYGYWGQGTQVTVSS")
"high polyreactivity"

Consider the following items and state reported polyreactivity (PSR sort gate) for each.
1. QVQLVESGGGLVQAGGSLRLSCAASGSTFKPYAMGWYRQAPGKERELVADISGRGGSTYYADSVKGRFTISRDNAKKTVYLQMNSLKPEDTAVFYCATYSSRQRKSSYYYWGQGTHVTVSS
2. QVQLQERGGGLVQAGGSLRLSCAASGNIFEADIMGWYHQAQGKDRELVASITDGGSTNYADSVKGRFTINRDNAKNKVSRQMNSLKPEDTALYYCAAYGNARLKEHYYWGQGTQVTVSS
3. QVQLVESGGGLLQAGGSLPLSCPASGRIFYSYAMGWYRQAPGKERELVAGINWRGSNTYYADSVKGRFTISRDNAKNTVYFQMNSLKPEDTAVYYCSATYYQERRRGYWGQGSQVTVSS
4. QVQLVESGGGLVQAGGSLRLSCAASGFIFYYYAMGWYRQAPGKERELVASISSDGSTYYADSVKGRFTISRDNAKNTVYLQMNSLKPEDTAVYYCNADRYYPDDLSDGVGTYDYWGQGTQVTVSS
5. QVQHVESGGGLVQAGGSLRLSCAASGGIFERKDMGWYRQAHGKERQLVAGISSVGSTNYADSVKWRFTISRDNAKNTVYLQMNSLKPEDTAVYYCAAKRVRALYVGSEGGYWGQGTQVTVSS

Response:
["high polyreactivity", "high polyreactivity", "high polyreactivity", "low polyreactivity", "low polyreactivity"]

Batch lookup, polyreactivity (PSR sort gate) per entry.
1. QVQLVESGGGLVQAGGSLRLSCAASGRTFGNYAMGWYRQAPGKERELVAAITSSGGTTYYADSVKGRFTISRDYAKNTVYLQMNSLKPEDTAVYYCAARHYPRNSWGYDYWGQGTQVNVSS
2. QVQLVESGGGLVQAGGSHRLSCAASARILYRNAMGRYRQAPGKERELVAAITTRGTSTYYADSVKGRFTISRDNANNTVYLQMNSLKPEDTAVYYCNKVTRDLTQGYDYWGQGTQVTVSS

Response:
high polyreactivity
high polyreactivity

----------
# test-protocol: yeast display, Sf9 membrane polyspecificity reagent, FACS + sequencing; frameworks hold sequencing errors
experimental-endpoint: polyreactivity (PSR sort gate)

>>> observed_result("QVQLVESGGGLVQAGGSLRLSCAASGFTIASNDMGWYRQAPGKERELVAAITKGGGRTYYADSVKGRFTISRDNAKNTVYLQMNSLKPEDTAVYYCAARQLIKYDYWGQGTQVTVSS")
"low polyreactivity"
>>> observed_result("QVQLVESGGGLVQAGGSLRLSCAASGRIFTTYAMGWYRQAPGKERELVASITTTDTRTYADSVKGRFTISRDNAKNTVYLQMNSLKPEDTAVYNCAKDRLNKGRYYRAASDYWGQGTQVTVSS")
"low polyreactivity"

----------
# test-protocol: yeast display, Sf9 membrane polyspecificity reagent, FACS + sequencing; frameworks hold sequencing errors
experimental-endpoint: polyreactivity (PSR sort gate)

Reference set (4 entries):
>>> observed_result("QVQLVESGGGLVQAGGRLRLSCAASGYTFEGYAMGWDRQAPGKERELVAAISRSGGRRYYADSVKGRFTISRDNAKNTVYLQMNSLKPEDTAVYYWAAGGYYQRTRGYWGQGTQVTVSS")
"high polyreactivity"
>>> observed_result("QVQLVESGGGLVQAGGSLRLSCAACGGIFWHYTLGWYRKAPGKERELVAAITRRGGSTYYADSVMGRFTISRDNAKNTVYLQMNSLKPEDTAVYYCAADFLPQSYNWYDYWGQGTQVTVSS")
"low polyreactivity"
>>> observed_result("QVQLVESGGGLVQAGGSLRLTCAASGRTFIVYAMGWYRQAPGKERELVAGITRGSTNYADSVKGRFTISRDNAKNTVYLQMNSLKPEDTAVYYCATEVYIWPWGTVYAFEYDYWGQGTQVTVSS")
"high polyreactivity"
>>> observed_result("QVQLVESGGGLVQAGGSLRLSCAASGSILFTNAMGWYRQAPGKERELVAAISSGGSTYYADSVKGRFTISRDNAKNTVYLQMNSLKPEDTAVYYCAADQLNVGREYVEYDYWGQGTQVTVSS")
"low polyreactivity"

Could you now look at the following sequence, please?
Request: polyreactivity (PSR sort gate) lookup needed for QVQLVESGGGLVQAAGSLRLSCAASGQFFAYYAMGWYRQATGKEREFVAAISWTGGSTYYADSVKGRFTISRDYAKKTVYLLMNSLKPEDTGVYYCAAVSNHLRYVASRYSYYYWGQGTQVTVSS , thanks.
Response: high polyreactivity

----------
# test-protocol: yeast display, Sf9 membrane polyspecificity reagent, FACS + sequencing; frameworks hold sequencing errors
experimental-endpoint: polyreactivity (PSR sort gate)

Check out these entries, answers already filled in.
>>> observed_result("QLQLVESGGGLVQAGGSLRLSCAASGFTFGVYAKGWYRQAPGKEREFVAAISWRGGSTYYADSVKGRFTISRDNAKITVYLQMNSLKPEDTAVYYCAADVLERGYGHYNYWGQGTQVTVSS")
"high polyreactivity"
>>> observed_result("QVQLVESGGGLVQAGGSLRLSCAASGSIFWNYTMGWYRPAPGKERELVAAITWSGSSTYYADSVKGRFTISRDNAKNTVYLQMNSLKPEDTAVYYCAKDGSGTYEFDYWGQGTQVTVSS")
"low polyreactivity"
>>> observed_result("QLQLVESGGGLVQAGGSLRLSCAASGRTFRLNGMGWYRQAPGKERELVAAITWSGGRTYYADSVKGRFTISRDNAKNTVYLQMNSLNPEDTAVYYCAAGKSSYGKPKYYYWGQGTQVTVSS")
"high polyreactivity"
>>> observed_result("QVQLVESWGGLVQAGGSLRLSCAASGSTFFSYAMGWYRQAPGKERELVAGIEWNGGDTNYADSVKGRFTISRDNAKNTVYLQMNSRKPVDTAVYYCATDYSYPGPFRRRERFDYWGQGTQVTVSS")
"low polyreactivity"

Shifting focus to the sequence that follows.
Request: Can you share its polyreactivity (PSR sort gate)? I mean this sequence: QVQLVESGGGLVQAGGSLRLSCAASGRTLPSNTMGWYRQAPGTERELVAAISKNGGSTYYADSVKGRFTISRDNAMNTVYLQMNSLKPEDTAVYYCNARYLYGRYRSPLDDYWGQGTQVTVSS
Response: high polyreactivity
